system.under.test: recombinant human estrogen receptor ERα ligand binding domain (Homo sapiens)
Construct: purchased Invitrogen PV4543
Sequence (P03372 311-547 limits assumed): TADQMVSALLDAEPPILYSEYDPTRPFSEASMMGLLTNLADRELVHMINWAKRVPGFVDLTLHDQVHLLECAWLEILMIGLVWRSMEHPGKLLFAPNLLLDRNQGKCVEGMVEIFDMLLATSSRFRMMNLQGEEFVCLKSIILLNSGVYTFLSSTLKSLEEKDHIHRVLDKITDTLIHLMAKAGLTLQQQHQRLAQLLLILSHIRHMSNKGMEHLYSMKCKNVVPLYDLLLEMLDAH
protocol.notes: LanthaScreen TR-FRET competition binding assay with estrogen receptor ERα ligand binding domain
measurement.parameters: TR-FRET competition with Fluormone ES2, ERα-LBD (GST); read-out: IC50 (nM) ER Reporter
parameter.measured: IC50

// solved cases for IC50 follow
- smiles.repr: "C[C@@H]1Cc2c([nH]c3ccccc23)[C@@H](c2c(F)cc(/C=C/C(=O)O)cc2F)N1CC1(F)CC1"
  system.under.test: "recombinant human estrogen receptor ERα ligand binding domain (Homo sapiens)"
  parameter.measured: "IC50"
  reading: "0.1 to 10 nM"
- smiles.repr: "C[C@H]1Cc2c([nH]c3cccc(F)c23)[C@H](c2c(F)cc(/C=C/C(=O)O)cc2F)N1CC1(F)CC1"
  system.under.test: "recombinant human estrogen receptor ERα ligand binding domain (Homo sapiens)"
  parameter.measured: "IC50"
  reading: "250 to 1000 nM"

Problem: Param item = C[C@@H]1Cc2c([nH]c3ccccc23)[C@@H](c2c(F)cc(/C=C/C(=O)O)cc2F)N1CC1CC1 ; retrieve measured IC50.
Solution: 0.1 to 10 nM
